Readings of melting point for the listed compounds

# compound, melting point / °C
records = [
    ("CCCC1CCc2c3c(c(F)c(F)c2O1)OC(C)C3 (stereo not given)", 87),
    ("CCCOc1ccc(Cc2nn(-c3ccccc3Cl)c(=O)o2)cc1", 68),
]

----------
Readings of melting point for the listed compounds
readout-label: melting point

# compound, val
records = [
    ("OC(Cn1cncn1)(Cn1cnc(C=Cc2ccc(OC(F)(F)F)cc2)n1)c1ccc(F)cc1F (configuration not stated)", "149 to 151 °C"),
    ("Clc1ccc2c(c1)C(c1ccccc1)Nc1nncn1-2 (configuration not stated)", "242 to 244 °C"),
    ("O=C(O)c1cc2c(c(C(=O)O)c1)NCCS2", "> 300 °C"),
    ("CCOC(=O)[C@H]1C=C[C@H](c2ccccc2)n2c(=O)n(CCCl)c(=O)n21 (relative stereo)", "117 to 119 °C"),
    ("CC(C)(CO)Nc1nc(SCc2cccc(Oc3ccccc3)c2)nc2nc(N)sc12", "126 to 130 °C"),
    ("C[Si](C)(CCCc1nnc(N)nc1N)c1ccccc1", "132 to 133 °C"),
    ("Fc1cccc(OCc2nnc(-c3ccc4c(c3)CCO4)o2)c1", "91 to 93 °C"),
    ("CC[C@@H](Cc1ccc(OC)c(C(=O)NCc2ccc(Oc3ccc(F)c(F)c3)cc2)c1)C(=O)O", "118 to 120 °C"),
    ("Oc1ccc2c(c1)CN(C1CC1)C2", "170 °C"),
    ("O=C(Cc1ccsc1)Nc1ccc(Br)cn1", "117 °C"),
    ("Cc1nc(C)c(C(C)(O)c2ccccc2)s1 (configuration not stated)", "131 to 132 °C"),
    ("CC(C)(C)N(CCc1ccccc1)NC(=O)c1ccccc1", "150 to 152 °C"),
    ("O=C1O[C@@H](CO)CN1c1ccc(Br)cn1", "123 to 124 °C"),
    ("COc1ncc(OC)c(NC#N)n1", "164 to 171 °C"),
    ("Cc1ccccc1S(=O)(=O)NC(=O)n1sc(Cl)cc1=O", "82 to 84 °C"),
    ("Nc1nc2ccc(Cc3cccs3)cc2s1", "188 to 191 °C"),
    ("C=C(c1ccc(OC)cc1)c1ccc(OC)cc1", "137 °C"),
    ("CCOC(=O)Cc1ccc2c(c1)sc1ccccc12", "60 to 62 °C"),
    ("CCOC(=O)Cc1nn(CC(=S)Nc2cc(C(F)(F)F)ccc2Br)c(=O)c2ccccc12", "160 °C"),
    ("Cc1cc(Oc2cc(F)ccc2[N+](=O)[O-])n[nH]1", "95 to 97 °C"),
    ("Cc1sc(-c2ccccc2)nc1COc1ccc(CO)cn1", "70 to 71 °C"),
    ("O=C(O)CCCn1ccn(C2CCc3ccccc3C2)c1=S (configuration not stated)", "156 to 158 °C"),
]

----------
Readings of melting point for the listed compounds

# compound, melting point
rows = [
    ("NCC(=O)c1cccc2c(S(=O)(=O)n3c(CCC(=O)O)cc4cc(Cl)ccc43)cccc12", "130 to 135 °C"),
    ("Cc1cc(S(C)(=O)=O)c(S(C)(=O)=O)cc1C(=O)N=C(N)N", "> 240 °C"),
    ("COC(=O)CCC(CS(=O)(=O)c1ccc2ccccc2c1)C(=O)N(CCC1CCCCC1)CCC1CCCCC1 (stereo not given)", "116 to 118 °C"),
    ("Cc1ccc(-c2nc(COc3ccc(CCCn4ccnc4)cc3)co2)o1", "109 to 110 °C"),
    ("Cc1c(Nc2c(C#N)cncc2-c2cc3cc(C=O)ccc3o2)ccc2[nH]ccc12", "235 to 237 °C"),
    ("O=C(O)C1C=Nc2c(cccc2[N+](=O)[O-])C1=O (stereo not given)", "263 to 265 °C"),
    ("COc1cc(OC)c2c(=O)cc(C(C)(C)C(N)=O)oc2c1", "217 to 219 °C"),
    ("Nc1cc(Br)c([N+](=O)[O-])cc1Br", "178 °C"),
    ("CCCc1nc2c(N)ncc(Br)c2n1CCOCCN", "114 to 117 °C"),
    ("C[C@]1(COc2ccc(N3CCN(C(=O)c4ccc(OC(F)(F)F)cc4)CC3)cc2)Cn2cc([N+](=O)[O-])nc2O1", "202 to 203 °C"),
    ("FC(F)(F)c1ccc(Nc2ccccc2C=C(Br)Br)cc1", "74 to 75 °C"),
    ("CCCN1CC(c2ccc(C)cc2)=C(c2ccc(S(C)(=O)=O)cc2)C1=O", "156 to 158 °C"),
    ("O=C(O)COc1c(I)cc(-c2c3ccccc3cc3sc4ccccc4c23)cc1I", "250 to 252 °C"),
    ("COc1cc(N)c(Cl)cc1C(=O)NCC1CCN(CCCS(=O)(=O)Cc2ccc(Cl)cc2)CC1", "175 to 177 °C"),
    ("Oc1ccc(-c2cc(O)ccc2-c2cc3cc(O)ccc3o2)cc1", "238 to 239 °C"),
    ("Cc1cc(C)cc(Sc2c(C(C)C)c(=O)[nH]c(=O)n2CCC2CC=CC2)c1", "128 to 129 °C"),
    ("O=c1c2ccccc2nnn1OS(=O)(=O)c1ccccc1", "132 to 134 °C"),
    ("Nc1c(C(F)(F)F)cc(Cl)c2[nH]c(=O)c(=O)[nH]c12", "> 360 °C"),
    ("Cc1ccc2cc(-c3cccc4ccccc34)nc(N3CCN(C)CC3)c2c1", "150 °C"),
    ("COc1ccc(N2C(=O)C(C)(C)N(c3ccc(Oc4ccccc4)cc3)C2=S)cc1", "144 °C"),
]

----------
readout-label: melting point

# compound, val
measured = [
    ("Cc1cc2ccccc2cc1C=O", "119 °C"),
    ("CNC(=O)C(CC1CCCCC1)NC(=O)Nc1n[nH]c(=S)s1 (stereo not given)", "246 to 247 °C"),
    ("Cc1[nH]c2ccc(F)cc2c1C(=O)Nc1ccc(OCC(C)(C)C)c(C#N)c1", "169 to 171 °C"),
    ("COc1cc2c(c3c1OC(C)(C)C3)C(c1cccc(N(C)C(N)=O)c1)=NC(C)(C)C2", "108 to 109 °C"),
    ("CCS(=O)(=O)N[C@H](C(=O)NCCc1ccc(OCCOc2ccc(F)cc2)c(OC)c1)C(C)C", "124 to 125 °C"),
    ("O=C(O)C[C@@H](Cc1ccccc1)C(=O)OCc1ccccc1", "48 to 52 °C"),
    ("CCCCCCCCCCCCCCCCN(C)S(=O)(=O)c1ccc(Cl)c([N+](=O)[O-])c1", "74 to 75 °C"),
    ("CCCCC[C@H]1CC[C@H](c2ccc(NC(=O)OC)cc2)CC1", "105 to 110 °C"),
    ("CC1(C)COc2ccc(C(=O)O)cc2OC1", "172 to 173 °C"),
    ("Cc1cc(CCCCCOc2ccc(C3OC=CO3)cc2)on1", "38 to 39 °C"),
]

----------
readout-label: melting point

# compound, readout-label, val
rows = [
    ("COCC1CN(c2ccc(C3CC3)cc2)C(=O)O1 (racemic)", "melting point", "58 to 60 °C"),
    ("CCc1ccc(C(=O)COc2ccc(CC3SC(=O)NC3=O)cc2)nc1 (stereo unspecified)", "melting point", "148 to 149 °C"),
    ("CCCCn1c(=O)cnn(-c2ccc(N3CCN(c4ccc(OC)cc4)CC3)cc2)c1=O", "melting point", "181 °C"),
    ("Oc1cc(OCc2ccccc2)cc(OCc2ccccc2)c1C/C=C/c1ccccc1", "melting point", "76 to 78 °C"),
    ("COC1=CC(=O)c2cc(O)ccc2C1=O", "melting point", "264 to 267 °C"),
    ("CCC(C)(C)NS(=O)(=O)c1ccc(CBr)cc1", "melting point", "100 °C"),
]

----------
Readings of melting point for the listed compounds
readout-label: melting point

# compound, val
rows = [
    ("CC1(C)C(=O)Nc2ccc(-c3cc(F)cc(C#N)c3)cc21", "231 to 232 °C"),
    ("COC(=O)c1ccc2c(c1)COc1ccc(/C=C/c3ccc4c(n3)CCCC4)cc1C2SCCC(=O)O (stereo not given)", "121 to 123 °C"),
    ("COC(=O)N1CC[C@H](NC(C)=O)C[C@H]1Cc1ccc(Cl)cc1 (relative stereo)", "169 to 170 °C"),
    ("COc1cn(Cc2cccc3ccccc23)c(=O)o1", "80 to 82 °C"),
    ("CC(C)C(O)=C(C#N)C#N", "92 to 93 °C"),
    ("CN(C)c1cc2c(cc1Cl)NC(=O)CC(c1cccc(-c3csc(Nc4ccncc4)n3)c1)=N2", "231 to 234 °C"),
    ("O=c1[nH]c2ncncc2s1", "> 108 °C"),
    ("COCc1ccc(CC(C)NCC(O)c2ccc(O)c(CO)c2)cc1 (stereo not given)", "81 to 92 °C"),
    ("Cc1ccc2c3c(c(=O)oc2c1)CN(CCN1CC2CCCC(C2)C1)CC3", "150 to 152 °C"),
    ("CC(=O)N[C@@H]1c2cnccc2OC(C)(C)[C@H]1O (relative stereo)", "208 to 210 °C"),
]

Sourced from a melting point compilation (Tetko et al.; mined from patent text by program, amines drawn as free bases though some values may be those of a salt)
